Reported shrunken log2 fold change values follow for various sequences
System: Escherichia coli TOP10
Assay: shrunken log2 fold change of peptide-encoding DNA abundance (4.5 h post-induction vs induction); higher = less antimicrobial activity (less host growth inhibition)
Settings: time post-induction: 4.5 h; library: site-saturation at positions 5, 18, 19, 20

Macromolecule Sequence	Tested On	shrunken log2 fold change
RRIRCRPPRLPRPRPRPLFCPRP	Escherichia coli TOP10	-0.442
RRIRQRPPRLPRPRPRPQTMPRP	Escherichia coli TOP10	0.0333
RRIRVRPPRLPRPRPRPGARPRP	Escherichia coli TOP10	0.198
RRIRDRPPRLPRPRPRPCASPRP	Escherichia coli TOP10	-0.0652
RRIRRRPPRLPRPRPRPGMTPRP	Escherichia coli TOP10	0.129
RRIRERPPRLPRPRPRPMRAPRP	Escherichia coli TOP10	0.763
RRIRQRPPRLPRPRPRPVPVPRP	Escherichia coli TOP10	-0.228
RRIRKRPPRLPRPRPRPDNYPRP	Escherichia coli TOP10	-0.153
RRIRVRPPRLPRPRPRPCSMPRP	Escherichia coli TOP10	-0.177
RRIRMRPPRLPRPRPRPRIIPRP	Escherichia coli TOP10	-0.138
RRIRKRPPRLPRPRPRPENVPRP	Escherichia coli TOP10	-0.00931

====

System: Escherichia coli TOP10
Experiment: shrunken log2 fold change of peptide-encoding DNA abundance (4.5 h post-induction vs induction); higher = less antimicrobial activity (less host growth inhibition)
Settings: time post-induction: 4.5 h; library: site-saturation at positions 5, 18, 19, 20
Reported shrunken log2 fold change values follow for various sequences
Outcome Measure: shrunken log2 fold change

Macromolecule Sequence	Measured Number
RRIRGRPPRLPRPRPRPWFRPRP	-0.0346
RRIRRRPPRLPRPRPRPFKFPRP	-0.0354
RRIRMRPPRLPRPRPRPFPMPRP	0.237
RRIRRRPPRLPRPRPRPMWTPRP	-0.132
RRIRFRPPRLPRPRPRPLTMPRP	-0.396
RRIRERPPRLPRPRPRPVVGPRP	-0.106
RRIRMRPPRLPRPRPRPGKEPRP	0.137
RRIRLRPPRLPRPRPRPHLLPRP	-0.0156
RRIRCRPPRLPRPRPRPTSCPRP	-0.0641
RRIRNRPPRLPRPRPRPTLHPRP	-0.0665
RRIRNRPPRLPRPRPRPEHPPRP	0.115
RRIRSRPPRLPRPRPRPVKRPRP	0.26
RRIRQRPPRLPRPRPRPGGRPRP	0.456
RRIRHRPPRLPRPRPRPEKIPRP	0.0327
RRIRQRPPRLPRPRPRPYCYPRP	-0.198
RRIRCRPPRLPRPRPRPDHHPRP	-0.246
RRIRNRPPRLPRPRPRPQCHPRP	-0.42
RRIRNRPPRLPRPRPRPFLIPRP	0.117

====

Reported shrunken log2 fold change values follow for various sequences
System: Escherichia coli TOP10
Experiment: shrunken log2 fold change of peptide-encoding DNA abundance (4.5 h post-induction vs induction); higher = less antimicrobial activity (less host growth inhibition)
Conditions: time post-induction: 4.5 h; library: site-saturation at positions 5, 18, 19, 20

Macromolecule Sequence	shrunken log2 fold change
RRIRERPPRLPRPRPRPLNMPRP	-0.528
RRIRWRPPRLPRPRPRPSMEPRP	0.0397
RRIRMRPPRLPRPRPRPRYSPRP	-0.342
RRIRFRPPRLPRPRPRPVCEPRP	0.182
RRIRFRPPRLPRPRPRPNTIPRP	-0.409

====

Tested on: Escherichia coli TOP10
Test: shrunken log2 fold change of peptide-encoding DNA abundance (4.5 h post-induction vs induction); higher = less antimicrobial activity (less host growth inhibition)
Conditions: time post-induction: 4.5 h; library: site-saturation at positions 5, 18, 19, 20
Outcome Measure: shrunken log2 fold change

Macromolecule Sequence	Result
RRIRFRPPRLPRPRPRPYTRPRP	-0.369
RRIRPRPPRLPRPRPRPEEAPRP	0.0763
RRIRLRPPRLPRPRPRPCPWPRP	-0.129
RRIRRRPPRLPRPRPRPNSDPRP	-0.17

====

System: Escherichia coli TOP10
Experiment: shrunken log2 fold change of peptide-encoding DNA abundance (4.5 h post-induction vs induction); higher = less antimicrobial activity (less host growth inhibition)
Conditions: time post-induction: 4.5 h; library: site-saturation at positions 5, 18, 19, 20
Entries are grouped by shrunken log2 fold change into these classes: L = under -0.08, M = from -0.08 up to 0.2, H = 0.2 and over

Macromolecule Sequence	Category
RRIRCRPPRLPRPRPRPITEPRP	L
RRIRYRPPRLPRPRPRPRQVPRP	L
RRIRGRPPRLPRPRPRPHHMPRP	L
RRIRARPPRLPRPRPRPVNFPRP	H
RRIRPRPPRLPRPRPRPMAMPRP	L
RRIRMRPPRLPRPRPRPQGTPRP	M
RRIRWRPPRLPRPRPRPQRKPRP	H
RRIRLRPPRLPRPRPRPKMSPRP	M
RRIRNRPPRLPRPRPRPPYHPRP	L
RRIRLRPPRLPRPRPRPDNCPRP	L
RRIRQRPPRLPRPRPRPFFWPRP	H
RRIRERPPRLPRPRPRPADWPRP	H
RRIRGRPPRLPRPRPRPELYPRP	H
RRIRKRPPRLPRPRPRPTNEPRP	H
RRIRKRPPRLPRPRPRPCNFPRP	L
RRIRYRPPRLPRPRPRPLQKPRP	M
RRIRRRPPRLPRPRPRPEWPPRP	H
RRIRNRPPRLPRPRPRPATMPRP	L
RRIRGRPPRLPRPRPRPIRSPRP	M
RRIRERPPRLPRPRPRPSRPPRP	M
RRIRYRPPRLPRPRPRPRPFPRP	L
RRIRGRPPRLPRPRPRPMCHPRP	H
RRIRERPPRLPRPRPRPDLCPRP	M
RRIRYRPPRLPRPRPRPCLVPRP	L
RRIRRRPPRLPRPRPRPRHSPRP	H
RRIRCRPPRLPRPRPRPVDGPRP	M
RRIRMRPPRLPRPRPRPKDWPRP	H
RRIRCRPPRLPRPRPRPQGVPRP	M
RRIRPRPPRLPRPRPRPQVIPRP	M
RRIRTRPPRLPRPRPRPRQRPRP	H

====

System: Escherichia coli TOP10
Experiment: shrunken log2 fold change of peptide-encoding DNA abundance (4.5 h post-induction vs induction); higher = less antimicrobial activity (less host growth inhibition)
Conditions: time post-induction: 4.5 h; library: site-saturation at positions 5, 18, 19, 20
Outcome Measure: shrunken log2 fold change

Macromolecule Sequence	Outcome Measure	Measured Number
RRIRARPPRLPRPRPRPDWYPRP	shrunken log2 fold change	-0.213
RRIRTRPPRLPRPRPRPKAFPRP	shrunken log2 fold change	-0.149
RRIRHRPPRLPRPRPRPLADPRP	shrunken log2 fold change	0.26
RRIRDRPPRLPRPRPRPENRPRP	shrunken log2 fold change	-0.0191
RRIRHRPPRLPRPRPRPEAGPRP	shrunken log2 fold change	0.264

====

Test system: Escherichia coli TOP10
Assay: shrunken log2 fold change of peptide-encoding DNA abundance (4.5 h post-induction vs induction); higher = less antimicrobial activity (less host growth inhibition)
Conditions: time post-induction: 4.5 h; library: site-saturation at positions 5, 18, 19, 20
Reported shrunken log2 fold change values follow for various sequences

Macromolecule Sequence	Tested On	shrunken log2 fold change
RRIRPRPPRLPRPRPRPASSPRP	Escherichia coli TOP10	0.0138
RRIRIRPPRLPRPRPRPSIPPRP	Escherichia coli TOP10	-0.867
RRIRDRPPRLPRPRPRPCEPPRP	Escherichia coli TOP10	0.194
RRIRMRPPRLPRPRPRPNGMPRP	Escherichia coli TOP10	0.185
RRIRPRPPRLPRPRPRPKHVPRP	Escherichia coli TOP10	-0.137

====

Test system: Escherichia coli TOP10;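 further: peptides expressed intracellularly from a pBAD plasmid library in pooled LB shake-flask culture, induced with 0.3% L-arabinose, DNA abundance read by NGS, three biological replicates, DESeq2 with apeglm shrinkage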
Assay: shrunken log2 fold change of peptide-encoding DNA abundance (4.5 h post-induction vs induction); higher = less antimicrobial activity (less host growth inhibition)
Conditions: time post-induction: 4.5 h; library: site-saturation at positions 5, 18, 19, 20
Cut-off 0.02 on shrunken log2 fold change, inclusive. At or above means Criterion met; below means Criterion not met.

Macromolecule Sequence	Tested On	Category
RRIRHRPPRLPRPRPRPHHLPRP	Escherichia coli TOP10	Criterion not met
RRIRHRPPRLPRPRPRPAARPRP	Escherichia coli TOP10	Criterion met
RRIRVRPPRLPRPRPRPHYTPRP	Escherichia coli TOP10	Criterion not met
RRIRGRPPRLPRPRPRPYRIPRP	Escherichia coli TOP10	Criterion met
RRIRERPPRLPRPRPRPMLTPRP	Escherichia coli TOP10	Criterion met
RRIRNRPPRLPRPRPRPGWYPRP	Escherichia coli TOP10	Criterion not met
RRIRGRPPRLPRPRPRPDQLPRP	Escherichia coli TOP10	Criterion met
RRIRFRPPRLPRPRPRPYQSPRP	Escherichia coli TOP10	Criterion not met
RRIRYRPPRLPRPRPRPEWSPRP	Escherichia coli TOP10	Criterion not met
RRIRFRPPRLPRPRPRPMAGPRP	Escherichia coli TOP10	Criterion not met
RRIRKRPPRLPRPRPRPHWKPRP	Escherichia coli TOP10	Criterion not met
RRIRCRPPRLPRPRPRPDAMPRP	Escherichia coli TOP10	Criterion met
RRIRPRPPRLPRPRPRPCMDPRP	Escherichia coli TOP10	Criterion not met
RRIRKRPPRLPRPRPRPWHGPRP	Escherichia coli TOP10	Criterion not met
RRIRGRPPRLPRPRPRPEMRPRP	Escherichia coli TOP10	Criterion met
RRIRCRPPRLPRPRPRPRFTPRP	Escherichia coli TOP10	Criterion met
RRIRIRPPRLPRPRPRPSYSPRP	Escherichia coli TOP10	Criterion not met
RRIRHRPPRLPRPRPRPNRPPRP	Escherichia coli TOP10	Criterion not met
RRIRDRPPRLPRPRPRPTQSPRP	Escherichia coli TOP10	Criterion met
RRIRVRPPRLPRPRPRPIQEPRP	Escherichia coli TOP10	Criterion not met
RRIRERPPRLPRPRPRPWRWPRP	Escherichia coli TOP10	Criterion not met
RRIRNRPPRLPRPRPRPGPRPRP	Escherichia coli TOP10	Criterion met
RRIRERPPRLPRPRPRPDACPRP	Escherichia coli TOP10	Criterion not met
RRIRYRPPRLPRPRPRPSQEPRP	Escherichia coli TOP10	Criterion not met
RRIRIRPPRLPRPRPRPWLDPRP	Escherichia coli TOP10	Criterion not met
RRIRMRPPRLPRPRPRPQHVPRP	Escherichia coli TOP10	Criterion met
RRIRRRPPRLPRPRPRPTCHPRP	Escherichia coli TOP10	Criterion met
RRIRVRPPRLPRPRPRPAHNPRP	Escherichia coli TOP10	Criterion not met
RRIRQRPPRLPRPRPRPEFYPRP	Escherichia coli TOP10	Criterion not met
RRIRHRPPRLPRPRPRPYILPRP	Escherichia coli TOP10	Criterion not met
